Test system: fat cells
Test details: Synthesis of fat from glucose in fat cells
Assay type: cell-based, male wister rats
Reported conditions: 20 μg/ml; 37° C., half an hour
Property: Power for synthesis of neutral fat from glucose

Exercise: Form field: reported Power for synthesis of neutral fat from glucose of CC(C)=CCC[C@](C)(O[C@@H]1O[C@H](CO)[C@@H](O)[C@H](O)[C@H]1O)[C@H]1CC[C@]2(C)[C@@H]1[C@H](O)C[C@@H]1[C@@]3(C)CC[C@H](O[C@@H]4O[C@H](CO[C@@H]5O[C@@H](C)[C@H](O)[C@@H](O)[C@H]5O)[C@@H](O)[C@H](O)[C@H]4O)C(C)(C)[C@@H]3CC[C@]12C
Solution: 13,600 cpm/g

Now look at this entry.
Exercise: So what does the record say about Power for synthesis of neutral fat from glucose for CC(C)=CCC[C@](C)(O[C@@H]1O[C@H](CO[C@@H]2O[C@@H](C)[C@H](O)[C@@H](O)[C@H]2O)[C@@H](O)[C@H](O)[C@H]1O)[C@H]1CC[C@]2(C)[C@@H]1[C@H](O)C[C@@H]1[C@@]3(C)CC[C@H](O[C@@H]4O[C@H](CO)[C@@H](O)[C@H](O)[C@H]4O[C@@H]4OC[C@@H](O)[C@H](O)[C@H]4O)C(C)(C)[C@@H]3CC[C@]12C ?
Solution: 12,600 cpm/g
